# TARGET_UNDER_TEST: GST-Bc1-2 (Homo sapiens, UniProt P10415)
# Sequence (P10415 whole entry): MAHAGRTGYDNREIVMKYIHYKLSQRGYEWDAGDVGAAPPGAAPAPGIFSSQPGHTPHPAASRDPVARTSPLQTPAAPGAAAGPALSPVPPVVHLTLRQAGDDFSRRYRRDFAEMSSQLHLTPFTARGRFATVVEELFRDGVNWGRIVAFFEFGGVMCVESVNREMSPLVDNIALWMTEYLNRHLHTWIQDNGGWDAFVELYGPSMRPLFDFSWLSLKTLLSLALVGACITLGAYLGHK
# EXPERIMENT_SUMMARY: Time Resolved-Fluorescence Resonance Energy Transfer (TR-FRET) Bcl-2 binding assay with F-Bak peptide probe
# MEASUREMENT_SETUP: GST-Bcl-2 1 nM, F-Bak probe 100 nM, Tb-anti-GST 1 nM; '<' = below limit of detection; read-out: TR-FRET Bcl-2 Binding Ki
REPORTED_ENDPOINT: Ki (nM)
State the answer as a number, implicitly in nM.

Input line: Bench note: what Ki did `CC1(C)CCC(CN2CCN(c3ccc(C(=O)NS(=O)(=O)c4cnc(N[C@H]5CC[C@H](N6CCOCC6)CC5)c(C#N)c4)c(Oc4cnc5[nH]ccc5c4)c3)CC2)=C(c2ccc(Cl)cc2)C1` show?
Output line: 0.127

Input line: Need Ki, item CC1(C)CCC(CN2CCN(c3ccc(C(=O)NS(=O)(=O)c4ccc(OCC5(F)CCC(N(CCC#N)C6CC6)CC5)c([N+](=O)[O-])c4)c(Oc4cnc5[nH]ccc5c4)c3)CC2)=C(c2ccc(Cl)cc2)C1 (centres unmarked)
Output line: 0.017

Input line: So what does the record say about Ki for `CC1(C)CCC(CN2CCN(c3ccc(C(=O)NS(=O)(=O)c4cnc(OCC5CCC(F)(F)CC5)c(Cl)c4)c(Oc4cnc5[nH]ccc5c4)c3)CC2)=C(c2ccc(Cl)cc2)C1` ?
Output line: 0.081

Input line: What Ki value was documented for this molecule, `COCC(=O)N1CCC(COc2ccc(S(=O)(=O)NC(=O)c3ccc(N4CCN(CC5=C(c6ccc(Cl)cc6)CC(C)(C)CC5)CC4)cc3Oc3cnc4[nH]ccc4c3)cc2Cl)CC1` ?
Output line: 0.046

###

# TARGET_UNDER_TEST: GST-Bc1-2 (Homo sapiens, UniProt P10415)
# EXPERIMENT_SUMMARY: Time Resolved-Fluorescence Resonance Energy Transfer (TR-FRET) Bcl-2 binding assay with F-Bak peptide probe
# MEASUREMENT_SETUP: read-out: Bcl-2 FRET Ki
REPORTED_ENDPOINT: Ki
Value and unit, in that order.

Input line: Given CC1(C)CCC(CN2CCN(c3ccc(C(=O)NS(=O)(=O)c4ccc(OCC5COCCO5)c([N+](=O)[O-])c4)c(Oc4ccc5[nH]ccc5c4)c3)CC2)=C(c2ccc(Cl)cc2)C1 (stereo not shown) [Example 92] , state its recorded Ki.
Output line: 128 pM

###

# TARGET_UNDER_TEST: GST-Bc1-2 (Homo sapiens, UniProt P10415)
# EXPERIMENT_SUMMARY: Time Resolved-Fluorescence Resonance Energy Transfer (TR-FRET) Bcl-2 binding assay with F-Bak peptide probe
# MEASUREMENT_SETUP: GST-Bcl-2 1 nM, F-Bak probe 100 nM, Tb-anti-GST 1 nM; '<' = below limit of detection; read-out: TR-FRET Bcl-2 Binding Ki
REPORTED_ENDPOINT: Ki (pM)
Give the number; pM is assumed, so skip it.

Input line: Ki of CC1(C)CCC(CN2CCN(c3ccc(C(=O)NS(=O)(=O)c4cnc(OCC5CCC6(CC5)CNC(=O)O6)c(Cl)c4)c(Oc4cnc5[nH]ccc5c4)c3)CC2)=C(c2ccc(Cl)cc2)C1 (single isomer, unassigned) [Example 396] on GST-Bc1-2 (Homo sapiens, UniProt P10415)?
Output line: 14

Input line: What Ki appears in the records for this compound with GST-Bc1-2 (Homo sapiens, UniProt P10415)? CC1(C)CCC(CN2CCN(c3ccc(C(=O)NS(=O)(=O)c4cnc(OCC5CCN(c6nccs6)CC5)c(Cl)c4)c(Oc4cnc5[nH]ccc5c4)c3)CC2)=C(c2ccc(Cl)cc2)C1 [Example 375]
Output line: 110

Input line: Find Ki (GST-Bc1-2 (Homo sapiens, UniProt P10415)) for the entry CC1(C)CCC(CN2CCN(c3ccc(C(=O)NS(=O)(=O)c4ccc(OCC5(F)CCOCC5)c(S(=O)(=O)C(F)(F)F)c4)c(Oc4cnc5[nH]ccc5c4)c3)CC2)=C(c2ccc(Cl)cc2)C1 [Example 220]
Output line: 988

Input line: Return Ki measured with GST-Bc1-2 (Homo sapiens, UniProt P10415) given this compound: CCN(C)C(=O)N1CCOC(CNc2ccc(S(=O)(=O)NC(=O)c3ccc(N4CCN(CC5=C(c6ccc(Cl)cc6)CC(C)(C)CC5)CC4)cc3Oc3cnc4[nH]ccc4c3)cc2Cl)C1 (stereo not shown) [Example 333]
Output line: 511

Input line: Form entry - test system: GST-Bc1-2 (Homo sapiens, UniProt P10415); read-out: Ki; compound: CC1(C)CCC(CN2CCN(c3ccc(C(=O)NS(=O)(=O)c4ccc(OCC5(F)CCOCC5)nc4)c(Oc4cnc5[nH]ccc5c4)c3)CC2)=C(c2ccc(Cl)cc2)C1 [Example 251]
Output line: 571

Input line: Entry CC1(C)CCC(CN2CCN(c3ccc(C(=O)NS(=O)(=O)c4cnc(OC[C@H]5CN(CC#N)CCO5)c(Cl)c4)c(Oc4cnc5[nH]ccc5c4)c3)CC2)=C(c2ccc(Cl)cc2)C1 [Example 246] , system GST-Bc1-2 (Homo sapiens, UniProt P10415): what Ki was measured?
Output line: 144

Input line: Write down the reported Ki of COCCN1CCCC(CNc2ccc(S(=O)(=O)NC(=O)c3ccc(N4CCN(CC5=C(c6ccc(Cl)cc6)CC(C)(C)CC5)CC4)cc3Oc3cnc4[nH]ccc4c3)cc2[N+](=O)[O-])C1 (stereo not shown) [Example 228] , test system: GST-Bc1-2 (Homo sapiens, UniProt P10415).
Output line: 26800

Input line: Query the reported Ki for GST-Bc1-2 (Homo sapiens, UniProt P10415); item: CC1(C)CCC(CN2CCN(c3ccc(C(=O)NS(=O)(=O)c4ccc(NCc5ccc(OC(F)F)cc5)c([N+](=O)[O-])c4)c(Oc4cnc5[nH]ccc5c4)c3)CC2)=C(c2ccc(Cl)cc2)C1 [Example 177]
Output line: 111
